assay: in vivo; conditions: CD-1, mouse, po, t1/2
metric: half-life (min)

I: COc1cccc(/C=C2\CN(CCC(C)C)C/C(=C\c3cccc(OC)c3)C2=O)c1
II: COc1ccccc1/C=C1\CN(CCC(C)C)C/C(=C\c2ccccc2OC)C1=O
stdin: Of I versus II , which is the one with smaller reported half-life? Mark your selection by writing its label.
stdout: I

----------
experiment: in vivo; settings: CD-1, mouse, po
metric: Tmax (min)

1: COc1ccccc1/C=C1\CN(CCC(C)C)C/C(=C\c2ccccc2OC)C1=O
2: COc1cccc(/C=C2\CN(CCC(C)C)C/C(=C\c3cccc(OC)c3)C2=O)c1
stdin: Of 1 versus 2 , which is the one with smaller reported Tmax? Mark your selection by writing its label.
stdout: 2
(2: 15 min, 1: 30 min)
